PROCEDURE SUMMARY: in vivo
EXPERIMENTAL PARAMETERS: male, SD, rat, 0.88 mg/kg, plasma concentration
MEASURED PARAMETER: concentration at 2 h (ng/mL)
Give the value, in units of ng/mL, as a plain number.

Item CN1CCc2cccc3c2[C@@H]1Cc1ccc(O)c(O)c1-3 has what recorded concentration at 2 h?
1.52

* * *

PROCEDURE SUMMARY: in vivo
EXPERIMENTAL PARAMETERS: male, C57BL/6J, mouse, po, 25 mg/kg, CSF concentration
MEASURED PARAMETER: concentration at 4 h

Which concentration at 4 h is reported for this molecule? CN1CCc2cccc3c2[C@@H]1Cc1ccc(O)c(O)c1-3
4.08 ng/mL

* * *

PROCEDURE SUMMARY: in vivo
EXPERIMENTAL PARAMETERS: male, cynomolgus monkey, po, 10 mg/kg, Plasma concentration, fed male Cynomolgus Monkeys, 1 h, animal 169939C
MEASURED PARAMETER: concentration at 1 h (ng/mL)
I only need the number, in ng/mL, no unit after it.

Requested read-out: concentration at 1 h. Entry: CN1CCc2cccc3c2[C@@H]1Cc1ccc(O)c(O)c1-3
2.81

* * *

PROCEDURE SUMMARY: in vivo
EXPERIMENTAL PARAMETERS: male, SD, rat, iv, 0.88 mg/kg, AUClast
MEASURED PARAMETER: AUC(0-t) (ng·h/mL)
Form entry: value (ng·h/mL) — number only.

# query: AUC(0-t) of entry CN1CCc2cccc3c2[C@@H]1Cc1ccc(O)c(O)c1-3
83.2

* * *

PROCEDURE SUMMARY: in vivo
EXPERIMENTAL PARAMETERS: male, C57BL/6J, mouse, sc, 0.0367 mg/kg, AUClast
MEASURED PARAMETER: AUC(0-t) (ng·h/mL)
# value in ng·h/mL; strip the unit string

# input molecule: CN1CCc2cccc3c2[C@H]1Cc1ccc(O)c(O)c1-3 ; wanted: its AUC(0-t)
5.1

* * *

PROCEDURE SUMMARY: in vivo
EXPERIMENTAL PARAMETERS: male, SD, rat, iv, 0.88 mg/kg, mean plasma concentration
MEASURED PARAMETER: concentration at 1 h

What does the data say about its concentration at 1 h? Entry: CN1CCc2cccc3c2[C@H]1Cc1ccc(O)c(O)c1-3
0.232 ng/mL

* * *

PROCEDURE SUMMARY: in vivo
EXPERIMENTAL PARAMETERS: male, SD, rat, iv, 0.88 mg/kg, C0
MEASURED PARAMETER: C0 (ng/mL)
Give just the numeric value; ng/mL need not be written.

Quick one: C0 for CN1CCc2cccc3c2[C@@H]1Cc1ccc(O)c(O)c1-3 ?
527

* * *

PROCEDURE SUMMARY: Plasma and CSF pharmacokinetic study, single sublingual, oral or subcutaneous dose, male Beagle dogs
Type: in vivo
EXPERIMENTAL PARAMETERS: male, beagle, dog, in vivo, sc, 1 mg/kg, AUCinf
MEASURED PARAMETER: AUC(0-inf) (ng·h/mL)
The response must be a number in ng·h/mL with no trailing unit.

Entry CN1CCc2cccc3c2[C@@H]1Cc1ccc(O)c(O)c1-3 has what AUC(0-inf)?
88.4
